# credit: patent US10669272B2

Entries and their pIC50
- measuredOn: human DGKα (Homo sapiens, UniProt P23743)
- Construct: TVMV protease cleavage site (C); Hexa-His (C); made in house; host or cells: Sf9 insect cells (baculovirus, Bac-to-Bac)
- Sequence (P23743 with tags, fused parts or gaps): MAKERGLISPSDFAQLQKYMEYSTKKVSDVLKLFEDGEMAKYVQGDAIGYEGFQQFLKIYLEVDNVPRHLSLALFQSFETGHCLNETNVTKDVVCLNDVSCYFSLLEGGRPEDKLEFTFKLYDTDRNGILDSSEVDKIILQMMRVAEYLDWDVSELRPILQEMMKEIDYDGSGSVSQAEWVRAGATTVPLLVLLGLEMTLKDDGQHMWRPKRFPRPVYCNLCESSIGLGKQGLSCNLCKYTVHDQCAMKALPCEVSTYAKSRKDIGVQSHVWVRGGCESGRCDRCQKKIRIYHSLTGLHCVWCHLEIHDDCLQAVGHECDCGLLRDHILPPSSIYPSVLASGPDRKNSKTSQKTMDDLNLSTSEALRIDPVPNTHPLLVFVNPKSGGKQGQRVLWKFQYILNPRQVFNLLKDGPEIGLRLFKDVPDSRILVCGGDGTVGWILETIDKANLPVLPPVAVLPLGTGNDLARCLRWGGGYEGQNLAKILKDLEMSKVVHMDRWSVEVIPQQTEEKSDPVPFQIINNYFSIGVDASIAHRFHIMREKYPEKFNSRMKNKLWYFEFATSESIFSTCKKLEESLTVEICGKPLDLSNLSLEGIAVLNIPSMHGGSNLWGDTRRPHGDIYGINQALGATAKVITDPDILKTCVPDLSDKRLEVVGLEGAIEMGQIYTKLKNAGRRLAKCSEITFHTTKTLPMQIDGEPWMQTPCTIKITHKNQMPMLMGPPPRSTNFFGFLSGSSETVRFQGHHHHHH
- method: DGKα LIPGLO assay (extruded liposome substrate), in vitro DGK inhibition
- Format: biochemical
- conditionDescription: liposome (LIPGLO) assay; read-out: DGKa LIPGLO IC50
pIC50: −log10 of the molar value.
assayReadout: pIC50

| molecule | assayValue |
| --- | --- |
| CCc1cc(F)ccc1C(c1ccc(Cl)cc1)N1C[C@H](C)N(c2cc(=O)n(C)c3ccc(OC)nc23)C[C@H]1C (single isomer, unassigned) [Example 231] | 3.62 |
| CCOc1cc(F)ccc1C(c1ccc(F)cc1)N1C[C@H](C)N(c2cc(=O)n(C)c3ccc(C#N)nc23)C[C@H]1C (single isomer, unassigned) [Example 229] | 4.24 |
| C[C@@H]1CN(c2cc(=O)n(C)c3ccc(C#N)nc23)[C@@H](C)CN1C(c1ccc(F)cc1)c1ccc(Cl)cc1 (stereo partly drawn) [Example 300] | 6.05 |
| COC(=O)C1CN(c2c(C#N)c(=O)n(C)c3ccc(C#N)nc23)CCN1C(c1ccc(F)cc1)c1ccc(F)cc1 (single isomer, unassigned) [Example 50] | 5.66 |
| CC(c1ccc2c(c1)OCCO2)N1C[C@H](C)N(c2cc(=O)n(C)c3ccc(C#N)nc23)C[C@H]1C (single isomer, unassigned) [Example 1258] | 5.66 |
| Cc1nccc(C(c2ccc(F)cc2)N2C[C@H](C)N(c3cc(=O)n(C)c4ccc(C#N)nc34)C[C@H]2C)n1 (single isomer, unassigned) [Example 389] | 5.66 |
